assay: Spectral Properties of 9 in CH2Cl2, Table 3; format: physicochemical
Decision: Imax >= 500 nm yields Satisfied, all other cases yield Not satisfied.

Solved cases below.
Molecule	Classification
O=S(=O)([O-])C(F)(F)F.c1ccc(CSc2c3ccc(=[N+]4CCCCC4)cc-3oc3cc(N4CCCCC4)ccc23)cc1	Satisfied
CCC(C)Nc1c2ccc(=[N+]3CCCCC3)cc-2oc2cc(N3CCCCC3)ccc12.O=S(=O)([O-])C(F)(F)F (racemic)	Not satisfied
CC(Nc1c2ccc(=[N+]3CCCCC3)cc-2oc2cc(N3CCCCC3)ccc12)C(=O)OC(C)(C)C.O=S(=O)([O-])C(F)(F)F (stereo not drawn)	Not satisfied

Could you now consider this next molecule?
Is reported Imax greater than or equal to 500 nm here: COC(=O)C1CCN(c2ccc3c(N4CCCCC4)c4ccc(=[N+]5CCC(C(=O)OC)CC5)cc-4oc3c2)CC1.O=S(=O)([O-])C(F)(F)F (stereo not drawn)
Not satisfied
